Test Name: qHTS Assay for inhibitors of the human cytomegalovirus (HCMV); also: % is scaled to controls: 0 for no effect and ±100 for the full control effect
Condition Description: HFF cells, HCMV-luciferase reporter, 72 h; at 57.5 µM; hits give low values
The campaign covered roughly 410,000 compounds. About 18,000 (4.4%) were called active. Inconclusive results (about 7%) are left out. Only a selection was taken, and actives are over-represented in it overall.
Assign activity change, negative = inhibition to each entry below.
Numbers only, in %.

Consider the reported activity change, negative = inhibition for these compounds:
Dear colleague, please send me the reported activity change, negative = inhibition for CCOC(=O)C1CCN(c2ncnc3c2c(-c2ccccc2)cn3-c2cccc(C)c2)CC1 when you can.
-35.2

Dear colleague, please send me the reported activity change, negative = inhibition for CC(C)Cn1c(N)c(C(=O)COC(=O)CN2C(=O)C3CC=CCC3C2=O)c(=O)n(C)c1=O (configuration not stated) when you can.
-31.7

Dear colleague, please send me the reported activity change, negative = inhibition for C/C(=N\NC(=O)c1cc2c(s1)CCC(C)C2)c1cccnc1 (configuration not stated) when you can.
-78.9

Dear colleague, please send me the reported activity change, negative = inhibition for Cc1ccc(CCNC(=O)CN2C(=O)CSc3ccc(S(=O)(=O)N4CCOCC4)cc32)cc1 when you can.
-26.9

Dear colleague, please send me the reported activity change, negative = inhibition for CC(=O)N1CCc2c(sc(NC(=O)CCS(=O)(=O)c3ccccc3)c2C#N)C1 when you can.
-99.8

Give me activity change, negative = inhibition for each of these compounds, listed below.
1. CCN1CCc2nc(NC(=O)c3cc(F)c(F)cc3Cl)sc2C1
2. O=C(CC1N=C2c3ccccc3N=C(SCc3cccc(Cl)c3)N2C1=O)NCc1ccc2c(c1)OCO2 (configuration not stated)
3. CCC(=O)N1CCc2cc(S(=O)(=O)NC(C(=O)NCCc3ccc(C)cc3)C(C)C)ccc21 (configuration not stated)
4. COC(=O)CC(CC(=O)OC)n1cccc1
5. Cc1c(C)n(Cc2ccc(Cl)cc2)c2ccc(C(=O)N3CCN(c4ccccc4F)CC3)cc12
6. Cc1nn(-c2ccc(N3CCCCC3)nn2)c(C)c1CCC(=O)NCc1ccc(F)cc1

[-0.35, -15.6, 12.8, 19.2, 0, -11.9]

Value source: PubChem BioAssay AID1259415
